# Tested on: cancer cell lines, DetermaIO classes
# method-notes: Association of PRISM compound sensitivity with DetermaIO (DTIO) cell line classes
# Format: cell-based
# experimental-setup: correlation of PRISM compound sensitivity with DTIO; training cell set
parameter-measured: DTIO Corr train
// print number alone

Worked cases, DTIO Corr train given:
compound: Cc1c(-c2ccnn2C)cc(C(=O)NCc2ccc(S(C)(=O)=O)cn2)c(=O)n1-c1cccc(C(F)(F)F)c1 [AZD9668]
numeric-readout: 0.06934
//
compound: O=C(NCc1cccc(O)c1)Nc1nc(-c2ccncc2)cs1 [RKI-1447]
numeric-readout: 0.04633
//
compound: N#Cc1c(Oc2ccc(F)c(NC(=O)Cc3cccc(C(F)(F)F)c3)c2)ccc2nc(NC(=O)C3CC3)sc12 [TAK-632]
numeric-readout: 0.08489

# next compound below
Qu. Please supply the value of reported DTIO Corr train for the item Nc1nc2c(nc(Br)n2[C@@H]2O[C@@H]3COP(=O)(O)O[C@H]3[C@H]2O)c(=O)[nH]1 [8-bromo-cGMP]
Ans. 0.07485

Where do these numbers come from? They come from patent US20250140406A1.
